Values were extracted from patent US5324648A.

- ASSAY_TARGET: human factor XIa (Homo sapiens)
- Construct: human factor XIa
- Sequence (P03951 388-625 limits assumed): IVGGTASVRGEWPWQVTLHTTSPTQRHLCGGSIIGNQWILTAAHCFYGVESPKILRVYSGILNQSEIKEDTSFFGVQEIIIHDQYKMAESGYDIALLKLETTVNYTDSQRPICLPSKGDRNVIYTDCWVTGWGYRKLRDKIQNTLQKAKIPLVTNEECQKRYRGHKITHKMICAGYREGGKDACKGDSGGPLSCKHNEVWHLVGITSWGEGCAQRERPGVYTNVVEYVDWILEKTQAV
- Sequence (P03951 19-387 partner limits assumed): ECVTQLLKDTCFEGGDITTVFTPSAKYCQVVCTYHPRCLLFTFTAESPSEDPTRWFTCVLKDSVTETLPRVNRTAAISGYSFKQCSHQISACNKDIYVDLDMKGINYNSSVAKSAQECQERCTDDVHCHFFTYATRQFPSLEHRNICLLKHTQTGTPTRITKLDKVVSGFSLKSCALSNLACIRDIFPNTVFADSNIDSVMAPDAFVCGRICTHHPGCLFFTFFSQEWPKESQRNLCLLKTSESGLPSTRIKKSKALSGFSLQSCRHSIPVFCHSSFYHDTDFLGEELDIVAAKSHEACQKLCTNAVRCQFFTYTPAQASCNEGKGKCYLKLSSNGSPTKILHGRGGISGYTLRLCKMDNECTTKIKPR
- ASSAY_DETAILS: Inactivation rate of human factor XIa
- Assay type: biochemical
- MEASUREMENT_PARAMETERS: Table I; pH 7.5, 25° C; [I] 3 to 330 μM; read-out: kobs/[I]
Rule: kinact/KI of 20000 M⁻¹ s⁻¹ or more gives yes; anything lower gives no.

>  <QUERY_SMILES>
N=C(N)Nc1ccc2cc(OCCc3ccccc3)oc(=O)c2c1

>  <CLASS_NAME>
no

$$$$
>  <QUERY_SMILES>
CCOc1cc2ccc(NC(=N)N)cc2c(=O)o1

>  <CLASS_NAME>
no

$$$$
>  <QUERY_SMILES>
COc1cc2ccc(NC(=N)N)cc2c(=O)o1

>  <CLASS_NAME>
no

$$$$
>  <QUERY_SMILES>
COc1oc(=O)c2cc(NC(=N)N)ccc2c1Cl

>  <CLASS_NAME>
yes

$$$$
>  <QUERY_SMILES>
NCCCOc1cc2ccccc2c(=O)o1

>  <CLASS_NAME>
no

$$$$
